- Species: Homo sapiens
- PROTOCOL_SUMMARY: Inhibition of human telomerase at 10 uM after 2 hrs by TRAP assay
PARAMETER_MEASURED: inhibition (%)

STRUCTURE_SMILES: CN(C)CCCNc1cc2c3c(ccc4c5ccc6c7c(ccc(c1c34)c75)C(=O)N(CCCN(C)C)C6=O)C(=O)N(CCCN(C)C)C2=O
ENDPOINT_VALUE: 57

STRUCTURE_SMILES: CN(C)CCCNc1cc2c3c(ccc4c5c(NCCCN(C)C)cc6c7c(ccc(c1c34)c75)C(=O)N(CCCN(C)C)C6=O)C(=O)N(CCCN(C)C)C2=O
ENDPOINT_VALUE: 54

STRUCTURE_SMILES: CN(C)CCCNc1cc2c3c(ccc4c5c(Br)cc6c7c(ccc(c1c34)c75)C(=O)N(CCCN(C)C)C6=O)C(=O)N(CCCN(C)C)C2=O
ENDPOINT_VALUE: 55

STRUCTURE_SMILES: CN(C)CCCNc1cc2c3c(cc(NCCCN(C)C)c4c5ccc6c7c(ccc(c1c34)c75)C(=O)N(CCCN(C)C)C6=O)C(=O)N(CCCN(C)C)C2=O
ENDPOINT_VALUE: 56
